ASSAY_EXPLANATION: NCI Yeast Anticancer Drug Screen. Data for the mlh1 strain (AID 171);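 further: 0% = growth of vehicle-treated control cultures of the same strain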
MEASUREMENT_CONTEXT: S. cerevisiae mlh1 strain growth inhibition; at 33.0 µM; active compounds read high
Compounds without any hit were thinned out: in the full panel of roughly 79,000, 15% have a hit.
Consider the following compounds; for each one, report its growth inhibition.
One number for each entry, in %.

COMPOUND: COC1C=COC2(C)Oc3c(C)c(O)c4c(c3C2=O)/C(=N/C2CCC(O)OC2C)C=C(NC(=O)/C(C)=C\C(=O)C2CC2C(O)C(C)C(O)C(C)C(OC(C)=O)C1C)C4=O (stereo not drawn)
MEASUREMENT_UNITS: %
growth inhibition: 28
//
COMPOUND: CN(C)Cc1cc(N=Nc2ccc(Cl)cc2)cc(CN(C)C)c1O
MEASUREMENT_UNITS: %
growth inhibition: 10
//
COMPOUND: CC(C)=CC(=O)O[C@@H]1CC(C)(C)CC2C3=CCC4[C@]56CC[C@](O)(OC5)C(C)(C)C6CC[C@@]4(C)C3(C)CC[C@]21C(=O)O (stereo partly drawn)
MEASUREMENT_UNITS: %
growth inhibition: 87
//
COMPOUND: CCC(C)COC(=O)c1ccc(N=Cc2ccc(C=Nc3ccc(C(=O)OCC(C)CC)cc3)cc2)cc1 (stereo not drawn)
MEASUREMENT_UNITS: %
growth inhibition: 10
//
COMPOUND: CC1CCN(CCC(=O)c2ccc(Cl)cc2)CC1
MEASUREMENT_UNITS: %
growth inhibition: 26
//
COMPOUND: CN1c2ccc(Cl)cc2C(=O)NC1c1ccc([N+](=O)[O-])s1 (stereo not drawn)
MEASUREMENT_UNITS: %
growth inhibition: 96

Required: growth inhibition, one value per compound below.
1. CN(C)CCn1c2c3ccccc3ccc2c2oc(=O)c3ccccc3c21
2. CCOC(=O)C(NC(=O)c1ccccc1)(N1CCN(c2cc3c(cc2F)c(=O)c(C(=O)O)cn3C2CC2)CC1)C(F)(F)F (stereo not drawn)
3. S=c1[nH]nc(Nc2ccc(Cl)cc2)s1

A)
1: 95; 2: 0; 3: 8

Required: growth inhibition, one value per compound below.
1. O=CNc1ccc2c(c1)C(=O)c1ccccc1-2
2. COC(=O)C1=C(C)NC(C)=C(C(=O)OC)C1c1cccc(/[N+]([O-])=C/c2ccccc2)c1
3. CCCCCCCC1(N=[N+]=[N-])C(=O)c2ccccc2N(C)C1=O (stereo not drawn)
4. Fc1ccc(NC(=S)SCc2ccc(Cl)c(Cl)c2)cc1F

A)
[72, 39, 61, 99]
